System: M. tuberculosis H37Rv growth inhibition with meropenem
experimental-details: dose response, H37Rv, with and without meropenem (AID 434987);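 note: growth over 7 days at 37 °C before Alamar Blue read on day 9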
test-context: M. tuberculosis H37Rv growth inhibition; measured here: IC50 without meropenem
readout-type: IC50 (µM)
Return type: number; implicit unit µM.

These solved cases illustrate the format of a correct answer.
Cc1cc(Br)ccc1NC(=O)CN1C(=O)C2CC=CCC2C1=O (stereo not drawn)
8.65
Cn1ccnc1C(=O)Cc1ccc([N+](=O)[O-])cc1
44.1
CCOC(=O)C1CSC(CC(=O)Nc2ccc(Cl)c(Cl)c2)C(=O)N1 (stereo not drawn)
47.7
Cc1ccc(NC(=O)/C=C\C(=O)O)c([N+](=O)[O-])c1
95.7
COc1cc2nc(N3CCN(C(=O)OCc4ccccc4)[C@H](C(=O)NC(C)(C)C)C3)nc(N)c2cc1OC
65

Quick one: IC50 for Cc1ccc(C(=O)N/C(=C\c2ccc(-c3ccc(Cl)cc3)o2)C(=O)NCCCN(C)C)cc1 ? 25.2

Then what about the molecule O=C1N=C(N2CCCC2)S/C1=C\c1cccc(Br)c1 ? 55

Entry source: PubChem BioAssay AID434987
